Reference source for all entries: PubChem BioAssay (NCI)

Would you mind telling me the reported growth inhibition of each entry?
# assay-info: NCI Yeast Anticancer Drug Screen. Data for the mlh1 rad18 strain (AID 175)
# test-conditions: S. cerevisiae mlh1 rad18 strain growth inhibition; at 50.0 µM; hits give high values
Compounds without any hit were thinned out: in the full panel of roughly 79,000, 15% have a hit.
The figure you give is taken to be in %; do not add the unit.

Exercise: Any idea what growth inhibition was measured for Nc1ccc(C(=O)/C=C/c2ccccc2O)cc1 ?
Key: -1.15

Exercise: Any idea what growth inhibition was measured for Cc1cnc2cccc(Cl)c2c1Cl ?
Key: 20.6

Exercise: Any idea what growth inhibition was measured for CN(Cc1cnc2nc(N)nc(N)c2n1)c1ccc(C(=O)NC(CCC(=O)O)C(=O)O)c(Cl)c1Cl (stereo not drawn) ?
Key: 88.2

Exercise: Any idea what growth inhibition was measured for Oc1ccc(C2CCc3ccccc32)cc1 (stereo not drawn) ?
Key: 99.4

Exercise: Any idea what growth inhibition was measured for CC(C)(C)N=C=NC(c1ccccc1)(c1ccccc1)c1ccccc1 ?
Key: -3.25

Exercise: Any idea what growth inhibition was measured for COc1cc(Cc2n[nH]c(=S)n2-c2ccccc2)c(S(=O)(=O)N2CCOCC2)cc1OC ?
Key: 11.4

Exercise: Any idea what growth inhibition was measured for N#CS/C=C/SC#N ?
Key: 99.5

Exercise: Any idea what growth inhibition was measured for O=S(=O)(OI(OI(OS(=O)(=O)C(F)(F)F)c1ccccc1)c1ccccc1)C(F)(F)F ?
Key: 89.2

Exercise: Any idea what growth inhibition was measured for C=C1C[C@H]2C=Nc3cc(OCCCOc4cc5c(cc4OC)C(=O)N4CC(=C)C[C@H]4C=N5)c(OC)cc3C(=O)N2C1 ?
Key: 98.7

Exercise: Any idea what growth inhibition was measured for CCCCN(C)N=Nc1c(C(N)=O)n[nH]c1C(C)C ?
Key: 57.6

Exercise: Any idea what growth inhibition was measured for CCOC(=O)c1c(C)[nH]c(C(=O)C(N)C(=O)OCC)c1C (stereo not drawn) ?
Key: 99

Exercise: Any idea what growth inhibition was measured for CCN(CC)Cc1ccc(Nc2cc(C)nc(/N=C(\N)Nc3ccc(Cl)c(Cl)c3)n2)cc1 ?
Key: 97.3

Exercise: Any idea what growth inhibition was measured for O=C1C2=C(c3ccccc31)C(c1ccccc1Cl)NC(=S)N2 (stereo not drawn) ?
Key: 74.8

Exercise: Any idea what growth inhibition was measured for O=[N+]([O-])c1ccc(CCCl)c(CCl)c1 ?
Key: 89

Exercise: Any idea what growth inhibition was measured for CCOc1ccc(C(OC)OC)cc1[N+](=O)[O-] ?
Key: 10

Exercise: Any idea what growth inhibition was measured for CCCCCCCCCSC(=S)N(C)NC(=O)c1ccccn1 ?
Key: 93.7

Exercise: Any idea what growth inhibition was measured for CCCCn1c(C)nc2cc(C(F)(F)F)cc(N)c21 ?
Key: 43.5

Exercise: Any idea what growth inhibition was measured for N=C(N)c1ccc(/C=C/c2ccc(C(=N)N)cc2)cc1 ?
Key: 90.2

Exercise: Any idea what growth inhibition was measured for CCC1(CC(=O)O)OCCc2c1[nH]c1c(C)c(Cl)ccc21 (stereo not drawn) ?
Key: 97.5

Exercise: Any idea what growth inhibition was measured for CC(=O)N(/C=C\c1sc2ccccc2[n+]1C)c1ccccc1 ?
Key: 90.6

Exercise: Any idea what growth inhibition was measured for CCn1c2nc(=O)n(C)c(=O)c-2[n+]([O-])c2cc(C)ccc21 ?
Key: 10.8

Exercise: Any idea what growth inhibition was measured for CC1=C(C(=S)Nc2ccc(Cl)c(C(=O)OC(C)C)c2)SCCO1 ?
Key: 63.8

Exercise: Any idea what growth inhibition was measured for CC(=O)Nc1ccc(-c2nnc(SCC(=O)Nc3cccc(Cl)c3)o2)cc1 ?
Key: 28.7

====

# assay-info: NCI Yeast Anticancer Drug Screen. Data for the rad50 strain (AID 155);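 note: 0% = growth of vehicle-only cultures of the same strain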
# test-conditions: S. cerevisiae rad50 strain growth inhibition; at 50.0 µM
# Procedure: Growth inhibition of yeast strains with defined genetic alterations is measured as a screen for potential anti-cancer activity. Selected strains with alterations in DNA damage repair or cell cycle control were exposed to compounds and growth inhibition was measured relative to vehicle treated controls. The strain used in this assay is rad50
The panel holds about 79,000 compounds, 15% with a hit somewhere; the sample as a whole holds those more often. Activity calls are given as the source filed them. Rule as the data show it: active = growth inhibition above about 70%; inactive = the rest.
Choose one outcome from this list and give only that: active, inactive

Exercise: Query: recorded result category for CC(=O)OC/C=C/CCCOC(C)=O in this test
Key: active

Exercise: Query: recorded result category for COc1ccc(-c2c(C#N)cc(OC)c(OC)c2OC)c(C=O)c1 in this test
Key: inactive

Exercise: Query: recorded result category for COc1c([N+](=O)[O-])cc(-c2ccccc2)cc1[N+](=O)[O-] in this test
Key: inactive

Exercise: Query: recorded result category for Cc1nc(N)nc(-c2ccccc2)c1N=Nc1ccc(Cl)cc1 in this test
Key: inactive

Exercise: Query: recorded result category for COc1cc(C(=O)CBr)c2ccc(Cl)cc2n1 in this test
Key: active

Exercise: Query: recorded result category for N#C/C(=C/c1ccc([N+](=O)[O-])o1)c1ccccc1 in this test
Key: active

Exercise: Query: recorded result category for COc1ccc(C2c3cc4c(cc3OC(O)C2C)OCO4)cc1 (stereo unspecified) in this test
Key: active

Exercise: Query: recorded result category for CN(/N=C\c1cccc([N+](=O)[O-])c1)C(c1cccc([N+](=O)[O-])c1)N(C)/N=C/c1cccc([N+](=O)[O-])c1 (stereo unspecified) in this test
Key: inactive

Exercise: Query: recorded result category for O=S(=O)(/C=C/c1cccnc1)/C=C/c1cccnc1 in this test
Key: inactive

Exercise: Query: recorded result category for CCN(CC)CCCCCCNc1cc(C)cc2cccnc12 in this test
Key: inactive

Exercise: Query: recorded result category for O=[N+]([O-])c1ccccc1N=Nc1c(O)[nH]c2ccc(S(=O)(=O)O)cc12 in this test
Key: active

====

Would you mind telling me the reported growth inhibition of each entry?
# assay-info: NCI Yeast Anticancer Drug Screen. Data for the mec2-1 strain (AID 157)
# test-conditions: S. cerevisiae mec2-1 strain, at 5.0 µM (retest, dose inferred, filed as 0.5), hits give high values
The panel holds about 79,000 compounds, 15% with a hit somewhere; the sample as a whole holds those more often.
The figure you give is taken to be in %; do not add the unit.

Exercise: Any idea what growth inhibition was measured for O=C1/C(=C(/Br)I)c2ccccc2-c2ccccc21 ?
Key: 99

Exercise: Any idea what growth inhibition was measured for COC(=O)C1=C(C)NC(C)=C(C(=O)OC)C1c1ccc(/[N+]([O-])=C/c2ccccc2)cc1 ?
Key: 5

Exercise: Any idea what growth inhibition was measured for C=CNC(=O)Oc1ccccc1 ?
Key: -35

Exercise: Any idea what growth inhibition was measured for Cc1[nH]c2ccccc2c1C(C)CC(O)c1ccccc1 (stereo unspecified) ?
Key: -4

Exercise: Any idea what growth inhibition was measured for C/C(=C\c1ccccc1Cl)c1ccccn1 ?
Key: 2

Exercise: Any idea what growth inhibition was measured for O=S(=O)(Nc1ccccc1)c1ccccc1C(O)(c1ccccc1)c1ccccc1 ?
Key: -15

Exercise: Any idea what growth inhibition was measured for Cc1cc(O)c2c(c1)OC1(C)CCC3C(C)(C)CCCC34COC2C14 (stereo unspecified) ?
Key: 16

Exercise: Any idea what growth inhibition was measured for O=C(CCl)NC(=O)N(/N=C/c1ccco1)c1ccccc1 ?
Key: 3

Exercise: Any idea what growth inhibition was measured for CCOC(=O)C(NC(=O)c1ccccc1)[CH](c1ccc(OC)cc1)[Sn]([c]1ccccc1)([c]1ccccc1)[c]1ccccc1 (stereo unspecified) ?
Key: 37

Exercise: Any idea what growth inhibition was measured for S=C(NC/C(Br)=C/Br)Nc1cccc2ccccc12 ?
Key: -18

Exercise: Any idea what growth inhibition was measured for C/C(=N\NC(=S)N(C)C)c1cccc(C)n1 ?
Key: 84

====

# assay-info: NCI Yeast Anticancer Drug Screen. Data for the sgs1 mgt1 strain (AID 161);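 note: 0% = growth of cultures given vehicle only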
# test-conditions: S. cerevisiae sgs1 mgt1 strain, at 5.0 µM (retest, dose inferred, filed as 0.5)
Compounds without any hit were thinned out: in the full panel of roughly 79,000, 15% have a hit. Calls of active or inactive are those of the source. Cut-off read from the data, not from the text of the source: active = growth inhibition above about 70%; inactive = the rest.
Choose one outcome from this list and give only that: active, inactive

Exercise: Query: recorded result category for N=C(N)SCc1cc(Cl)cc(Cl)c1O in this test
Key: inactive

Exercise: Query: recorded result category for c1ccc(CC[n+]2csc3ccccc32)cc1 in this test
Key: inactive

Exercise: Query: recorded result category for C=CCOCCC=O in this test
Key: inactive

Exercise: Query: recorded result category for COC(=O)CSC(=S)Nc1ccc(Cl)cc1 in this test
Key: inactive

Exercise: Query: recorded result category for NNC(=O)N/N=C(\CC1(O)C(=O)Nc2c(Cl)ccc(Cl)c21)c1ccc(F)cc1 (centres undefined) in this test
Key: active

Exercise: Query: recorded result category for CC(C=O)=C(c1ccccc1)c1ccccc1 in this test
Key: inactive

Exercise: Query: recorded result category for CNC(=O)OCc1c(-c2ccccc2)c(-c2ccccc2)n(-c2ccc(OC)cc2)c1COC(=O)NC in this test
Key: inactive

Exercise: Query: recorded result category for O=Nc1c(O)c2ccccc2c2ccc([N+](=O)[O-])cc12 in this test
Key: inactive

Exercise: Query: recorded result category for CCCCCc1cc(Cl)cc(Cl)c1O in this test
Key: inactive

Exercise: Query: recorded result category for Nc1ccc(S(=O)(=O)N2CCCc3ccccc32)cc1 in this test
Key: inactive

Exercise: Query: recorded result category for CCOC(=O)C1=C(N)N(S(=O)(=O)c2ccc(C)cc2)CCC(C(=O)OC)=C1 in this test
Key: inactive

Exercise: Query: recorded result category for O=C(CCCl)Nc1ccc(CCC(=O)c2ccccc2NC(=O)CCCl)cc1 in this test
Key: inactive

Exercise: Query: recorded result category for [O-][N+]1=C2CCC/C(=N/O)C2(O)C2CCCCC21N1CCOCC1 (centres undefined) in this test
Key: inactive

Exercise: Query: recorded result category for CCCCCCCCCc1ccc(OCC(O)CO)cc1 (centres undefined) in this test
Key: inactive

Exercise: Query: recorded result category for CCN1C(/C=C/c2ccc(O)c3ncccc23)CCC2CC(C)CCC21 (centres undefined) in this test
Key: inactive

Exercise: Query: recorded result category for O=S(=O)(Nc1ccccc1-c1ccc(Cl)cc1)c1ccccc1 in this test
Key: inactive

Exercise: Query: recorded result category for O=[N+]([O-])/C(=C\c1cccs1)c1ccccc1 in this test
Key: active

Exercise: Query: recorded result category for CCCCCCCCC(=O)NCCCNCCCNC(=O)CCCCCCCC in this test
Key: inactive

Exercise: Query: recorded result category for COc1cccc(/C=N/NC(=O)c2c(-c3ccccc3)noc2C)c1O in this test
Key: inactive

Exercise: Query: recorded result category for CC(C)(C)C1CCC2c3c([nH]c4ccccc34)C3C(=O)N(c4ccc(C(=O)O)cc4)C(=O)C3C2C1 (centres undefined) in this test
Key: active

Exercise: Query: recorded result category for Cc1nn(C(=O)c2ccccc2O)c2c1C(c1ccc([N+](=O)[O-])cc1)SC(N)=N2 (centres undefined) in this test
Key: inactive

Exercise: Query: recorded result category for CN(C)c1ccc(C=Nc2cncc3ccccc23)cc1 in this test
Key: inactive

Exercise: Query: recorded result category for CCCCCN(CCCCC)CC(O)c1cccc2cc(Cl)ccc12 (centres undefined) in this test
Key: inactive

Exercise: Query: recorded result category for CCOC(=O)CC(O)(CCc1ccccc1)c1ccccc1 (centres undefined) in this test
Key: inactive
